System: OVCAR-3 ovarian
procedure text: NCI tumour cell line growth inhibition, 48 h; in the data active = GI50 below about 0.43 µM; inactive = the rest
The reply should name one outcome from active, inactive

Example results:
molecule	label class
CN(C)CCNc1nc2ccccc2c2c1c1c(n2Cc2ccccc2)-c2ccccc2C1=O	inactive
CC1(C)C=CC[C@]2(C)[C@H]3CC[C@@H]4[C@H]5[C@H](C(=O)/C=C/c6cccnc6)CC[C@]5(CO)CC[C@@]4(C)[C@]3(C)CC[C@@H]12	inactive
COc1cc([C@H](C)c2ccc3ccccc3c2)cc(OC)c1OC	active
Clc1nc(Oc2ccccc2)nc(-c2cn(-c3ccccc3)c3ccccc23)n1	inactive
COc1cccc(-c2nc3sccn3c2-c2ccnc(NCCNC(=O)Nc3cccc(C(F)(F)F)c3)n2)c1	inactive

Below: the item to evaluate.
## Input How was Oc1ccc(Br)cc1Sc1cc(Br)ccc1O classified in this test?
## Output inactive

----------
Test system: UO-31 renal
procedure text: NCI tumour cell line growth inhibition, 48 h
# TGI per entry

Some entries whose results are on file:
>>> df
                                   compound  reported_result
0  O=C(/C=C/c1ccc([N+](=O)[O-])cc1)c1nc2ccccc2[nH]1         > 100 µM
1  CCCCCCNC(=O)C1=C(C)NC(C)=C(C(=O)NCCCCCC)C1         > 100 µM
2  COC(=O)C(C)Sc1nc2cc(Cl)ccc2s1 (stereo not given)         > 100 µM
3  Cc1cc(S(=O)(=O)Nc2nnc3cc(C(F)(F)F)cc(C)n23)c(S)cc1Cl         > 100 µM

## Input State the measured TGI (UO-31 renal) of O=[N+]([O-])c1ccc2[nH]cc(-c3c4ccsc4cc4[nH]c5ccc([N+](=O)[O-])cc5c34)c2c1
## Output 5.14 µM

----------
Test system: OVCAR-3 ovarian
procedure text: NCI tumour cell line growth inhibition, 48 h
measure: TGI

In [3]: df
Out[3]:
                                   compound  reported_result
0  COP1(=O)CC2C(Cl)(Cl)C2(C)C1 (stereo unspecified)         > 100 µM

Turning to the following compound.
## Input Please look at this compound and report its TGI: CCOP(=O)(OCC)C(Nc1ccc(F)cc1)c1cccc([N+](=O)[O-])c1 (stereo unspecified)
## Output > 100 µM

----------
System: HCC-2998 colon
procedure text: NCI tumour cell line growth inhibition, 48 h
measure: TGI

                                   molecule  reported_result
0  CN1CC(c2ccccc2)N(CCCCN2CC(c3ccccc3)N(C)CC2c2ccccc2)CC1c1ccccc1 (stereo not given)         > 100 µM

## Input State the measured TGI (HCC-2998 colon) of Cc1ccc(C(=O)c2oc3ccc4c(C)cc(=O)oc4c3c2C)cc1
## Output > 100 µM

## Input State the measured TGI (HCC-2998 colon) of COc1cc(C2C3=C(COC3=O)OC(C)(C)Oc3cc4c(cc32)OCO4)cc(OC)c1OC (stereo not given)
## Output > 100 µM

----------
Tested on: MCF7 breast
procedure text: NCI tumour cell line growth inhibition, 48 h
measure: GI50

In [3]: df
Out[3]:
                                   compound  reported_result
0  CN(C)CCNc1nc2ccccc2c2c1c1c(n2Cc2ccccc2)-c2ccccc2C1=O          15.1 µM
1  COc1cc(OC2OC(C)C(O)C(O)C2O)cc2oc(-c3ccc(O)cc3)c(CC=C(C)C)c(=O)c12 (configuration not stated)          13.9 µM
2       O=C(Nc1ccc(Cl)cc1)Nc1ccc(Cl)c(Cl)c1          2.27 µM
3  COc1cc2nc(-c3ccc(C(F)(F)F)cc3)cc(OCCCN3CCOCC3)c2cc1OC          1.55 µM
4                 c1ccc2c(c1)[I+]c1ccccc1-2          > 50 µM
5  COc1cc2c(cc1C)NC(=O)/C2=C\c1cc(OC)c(OC)c(OC)c1          42.2 µM

## Input Please look at this compound and report its GI50: Clc1nc(Oc2ccccc2)nc(-c2cn(-c3ccccc3)c3ccccc23)n1
## Output 11.6 µM

## Input Please look at this compound and report its GI50: COc1cc(-c2cnn(C)c2)ccc1Nc1ncc2ccnc(N[C@@H](C)C(C)(C)C)c2n1
## Output > 63.1 µM

## Input Please look at this compound and report its GI50: CC(C)c1ccc(Cc2cnc(NC(=O)c3cc(Br)cs3)s2)cc1
## Output 1.6 µM
